Reported values of Percent of Binding to Mutant Human CD20 for individual entries
Target: T1, mutant human CD20 #6 (Y77F, N166D) (human, UniProt P11836 1-297)
T1 construct: Stably expressed on MG87 cells
T1 chain: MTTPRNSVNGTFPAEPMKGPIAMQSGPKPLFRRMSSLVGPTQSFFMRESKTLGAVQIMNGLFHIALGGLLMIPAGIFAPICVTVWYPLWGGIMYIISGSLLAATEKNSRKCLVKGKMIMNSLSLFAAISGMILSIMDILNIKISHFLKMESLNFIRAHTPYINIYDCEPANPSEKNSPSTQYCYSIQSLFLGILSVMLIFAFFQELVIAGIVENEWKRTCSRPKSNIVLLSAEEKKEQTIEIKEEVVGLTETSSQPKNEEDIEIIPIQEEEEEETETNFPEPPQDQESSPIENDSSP
Assay: FACS, mutant-hCD20 MG87 cells; 100%=best antibody
Field format: number, assumed %, no unit text.

Use the examples below as a reference point.
Fill blank: measured Percent of Binding to Mutant Human CD20 of the binder 9D4-7 (antibody, V domains shown, Fully human IgG, constant region not specified; also called 9D4-7N) VH: EVQLVESGGGLVQPGRSLRLSCAASGFTFYDYAMHWVRQAPGKGLEWVSGISWNSDTIGYADSVKGRFTISRDNAKNSLYLQMNSLRAEDTALYYCTKDGSYGHFYSGLDVWGQGTTVTVSS VL: EIVLTQSPATLSLSPGERATLSCRASQSVSSYLAWYQQKPGQAPRLLIYVASNRATGIPARFSGSGSGTDFTLTISSLEPDDFAVYYCQQRYYWPLTFGGGTKVEIK is ____.
0

Quick one: Percent of Binding to Mutant Human CD20 for 3H7-6 (antibody, V domains shown, Fully human IgG, constant region not specified; also called 3H7-6N) VH: EVQLVESGGGLVQPGRSLRLSCAASGFTFYDYAMHWVRQAPGKGLEWVSGISWNSGYIGYADSVKGRFTISRDNAKNSLYLQMNSLRAEDTALYYCAKDNSYGKFYYGLDVWGQGTTVTVSS VL: EIVMTQSPATLSVSPGERTTLSCRASQSVSSNLAWYLQKPGQAPRLLIYGASTRATGIPARFSGSGSGTEFILTISSLQSEDFAVYYCQQYNNWPITFGQGTRLEIK ?
0

// query Percent of Binding to Mutant Human CD20 value for entry 10F2-13 (antibody, V domains shown, Fully human IgG, constant region not specified; also called 10F2-13N; ab 10F2-13) VH: EEQLVESGGDLVQPGRSLRLSCAASGFTFHDYTMHWVRQAPGKGLEWVSGISWNSGSLGYADSVKGRFTISRDNAKKSLYLQMNSLRAEDTALYYCAKDPSYGSGSYHSYYGMDVWGQGTTVTVSS VL: EIVLTQSPATLSLSPGERATLSCWASQSISRYLVWYQQKCGQAPRLLIYEASKRATGIPVRFSGSGSGTDFTLTISSLESEDFAVYYCQQRFNWPLTFGGGTKVEIK
1

# context switch: different binder, same Percent of Binding to Mutant Human CD20
Entry 8G6-5 (antibody, V domains shown, Fully human IgG, constant region not specified; also called 8G6-5N) VH: EVQLAESGGDLVQSGRSLRLSCAASGITFHDYAMHWVRQPPGKGLEWVSGISWNSDYIGYADSVKGRFTISRDNAKKSLYLQMNSLRPDDTALYYCVKDFHYGSGSNYGMDVWGQGTTVTVSP VL: EIVMTQSPATLSMSPGERATLSCRASQSVSRNLAWYQQKVGQAPRLLISGASTRATGIPARFSGSGSGTEFTLTINSLQSEDFAVYYCQQSNDWPLTFGQGTRLEIK : reported Percent of Binding to Mutant Human CD20 = ?
5
